- SYSTEM_UNDER_TEST: T1, LIN7B, Q9HAP6
- T1 sequence (Q9HAP6 88-185, limits assumed, looked up): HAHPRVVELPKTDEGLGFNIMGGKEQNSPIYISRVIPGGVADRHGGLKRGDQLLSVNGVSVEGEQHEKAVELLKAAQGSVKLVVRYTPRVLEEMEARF
- ASSAY_TEXT: holdup assay
- Design: key: below the threshold = too weak to quantify, mostly under pKd 3.1 to 4
- SETTINGS: plain residues with an end cap or a label only (N-terminal biotin on a linker: ttds)

[
  {
    "BINDER": "VDFPPKESSL [ACVR2A, P27037]",
    "pKd": 3.54
  },
  {
    "BINDER": "RLQRRRETQV [HPV18-E6, P06463]",
    "pKd": 3.58
  }
]

Reference source for all entries: paper PMC9482650
